Reference source for all entries: paper PMC4933879

Molecular target: tubulin covalently linked to a biotinylated stathmin-like peptide
Assay: ELISA (off-rate estimation)
Settings: chain shown with the change; incubation with 100 nM soluble tubulin to prevent rebinding; 10 nM biotinylated peptide-coupled tubulin for coating; parent: est. 0.11; read off a plot

binder	response / AU
DARPin D1 E127K (protein) MRGSHHHHHHGSDLGKKLLEAARAGQDDEVRILMANGADVNATDASGLTPLHLAATYGHLEIVEVLLKHGADVNAIDIMGSTPLHLAALIGHLEIVEVLLKHGADVNAVDTWGDTPLHLAAIMGHLKIVEVLLKHGADVNAQDKFGKTAFDISIDNGNEDLAEILQKLN	0.11
DARPin D1 F150Y; I152T; N158S (protein) MRGSHHHHHHGSDLGKKLLEAARAGQDDEVRILMANGADVNATDASGLTPLHLAATYGHLEIVEVLLKHGADVNAIDIMGSTPLHLAALIGHLEIVEVLLKHGADVNAVDTWGDTPLHLAAIMGHLEIVEVLLKHGADVNAQDKFGKTAYDTSIDNGSEDLAEILQKLN	0.69
DARPin D1 F150Y (protein) MRGSHHHHHHGSDLGKKLLEAARAGQDDEVRILMANGADVNATDASGLTPLHLAATYGHLEIVEVLLKHGADVNAIDIMGSTPLHLAALIGHLEIVEVLLKHGADVNAVDTWGDTPLHLAAIMGHLEIVEVLLKHGADVNAQDKFGKTAYDISIDNGNEDLAEILQKLN	0.13
